Entries and their measured CL4931 (in vitro testing) follow.
- System: E. faecium CL 4931 (VanA)
- TEST DESCRIPTION: microbe, parasite or virus in culture
- Format: cell-based
- Parameters: unit not given here
- ASSAY CONDITIONS: Tables 7 and 8; unit not given
RECORDED ENDPOINT: CL4931 (in vitro testing)

MOLECULE	ASSAYED TARGET	OBSERVED VALUE
CNC(CC(C)C)C(=O)NC1C(=O)NC(CC(N)=O)C(=O)NC2C(=O)NC3C(=O)NC(C(=O)NC(C(=O)O)c4cc(O)cc(O)c4-c4cc3ccc4O)C(O)c3ccc(c(Cl)c3)Oc3cc2cc(c3OC2OC(CN3CCC(N(C)C)CC3)C(O)C(O)C2OC2CC(C)(NCc3ccc(OCc4ccc(Cl)c(Cl)c4)cc3)C(O)C(C)O2)Oc2ccc(cc2Cl)C1O (stereo not drawn)	E. faecium CL 4931 (VanA)	16
CNC(CC(C)C)C(=O)NC1C(=O)NC(CC(N)=O)C(=O)NC2C(=O)NC3C(=O)NC(C(=O)NC(C(=O)O)c4cc(O)cc(O)c4-c4cc3ccc4O)C(O)c3ccc(c(Cl)c3)Oc3cc2cc(c3OC2OC(CN)C(O)C(O)C2OC2CC(C)(NCc3ccc(OCc4ccc(Cl)c(Cl)c4)cc3OC)C(O)C(C)O2)Oc2ccc(cc2Cl)C1O (stereo not drawn)	E. faecium CL 4931 (VanA)	8
CNC(CC(C)C)C(=O)NC1C(=O)NC(CC(N)=O)C(=O)NC2C(=O)NC3C(=O)NC(C(=O)NC(C(=O)O)c4cc(O)cc(O)c4-c4cc3ccc4O)C(O)c3ccc(c(Cl)c3)Oc3cc2cc(c3OC2OC(CNCC3CCNCC3)C(O)C(O)C2OC2CC(C)(NCc3ccc(OCc4ccc(Cl)c(Cl)c4)cc3)C(O)C(C)O2)Oc2ccc(cc2Cl)C1O (stereo not drawn)	E. faecium CL 4931 (VanA)	16

---

Entries and their measured CL4931 (in vitro testing) follow.
- Tested on: E. faecium CL 4931 (VanA)
- TEST DESCRIPTION: microbe, parasite or virus in culture
- Format: cell-based
- Parameters: unit not given here
- ASSAY CONDITIONS: Tables 7 and 8; unit not given
RECORDED ENDPOINT: CL4931 (in vitro testing)

MOLECULE	OBSERVED VALUE
CNC(CC(C)C)C(=O)NC1C(=O)NC(CC(N)=O)C(=O)NC2C(=O)NC3C(=O)NC(C(=O)NC(C(=O)O)c4cc(O)cc(O)c4-c4cc3ccc4O)C(O)c3ccc(c(Cl)c3)Oc3cc2cc(c3OC2OC(CN)C(O)C(O)C2OC2CC(C)(NCc3ccc(OCc4ccc(F)cc4Cl)cc3)C(O)C(C)O2)Oc2ccc(cc2Cl)C1O (centres unmarked)	16
CNC(CC(C)C)C(=O)NC1C(=O)NC(CC(N)=O)C(=O)NC2C(=O)NC3C(=O)NC(C(=O)NC(C(=O)O)c4cc(O)cc(O)c4-c4cc3ccc4O)C(O)c3ccc(c(Cl)c3)Oc3cc2cc(c3OC2OC(CN3CCOCC3)C(O)C(O)C2OC2CC(C)(NCc3ccc(OCc4ccc(Cl)c(Cl)c4)cc3)C(O)C(C)O2)Oc2ccc(cc2Cl)C1O (centres unmarked)	32

---

- Test system: E. faecium CL 4931 (VanA)
- TEST DESCRIPTION: microbe, parasite or virus in culture
- Assay type: cell-based
- Parameters: unit not given here
- ASSAY CONDITIONS: Tables 7 and 8; unit not given

COMPOUND	CL4931 (in vitro testing)
CNC(CC(C)C)C(=O)NC1C(=O)NC(CC(N)=O)C(=O)NC2C(=O)NC3C(=O)NC(C(=O)NC(C(=O)O)c4cc(O)cc(O)c4-c4cc3ccc4O)C(O)c3ccc(c(Cl)c3)Oc3cc2cc(c3OC2OC(CN)C(O)C(O)C2OC2CC(C)(NCc3ccc(OCc4cc(Cl)cc(Cl)c4)cc3)C(O)C(C)O2)Oc2ccc(cc2Cl)C1O (stereo not drawn) [Compound 175]	4
CNC(CC(C)C)C(=O)NC1C(=O)NC(CC(N)=O)C(=O)NC2C(=O)NC3C(=O)NC(C(=O)NC(C(=O)O)c4cc(O)cc(O)c4-c4cc3ccc4O)C(O)c3ccc(c(Cl)c3)Oc3cc2cc(c3OC2OC(CN)C(O)C(O)C2OC2CC(C)(NCc3ccc(OCc4cccc(Cl)c4)cc3)C(O)C(C)O2)Oc2ccc(cc2Cl)C1O (stereo not drawn) [Compound 172]	16
CNC(CC(C)C)C(=O)NC1C(=O)NC(CC(N)=O)C(=O)NC2C(=O)NC3C(=O)NC(C(=O)NC(C(=O)O)c4cc(O)cc(O)c4-c4cc3ccc4O)C(O)c3ccc(c(Cl)c3)Oc3cc2cc(c3OC2OC(CNC3CC3)C(O)C(O)C2OC2CC(C)(NCc3ccc(OCc4ccc(Cl)c(Cl)c4)cc3)C(O)C(C)O2)Oc2ccc(cc2Cl)C1O (stereo not drawn) [Compound 165]	16
CNC(CC(C)C)C(=O)NC1C(=O)NC(CC(N)=O)C(=O)NC2C(=O)NC3C(=O)NC(C(=O)NC(C(=O)O)c4cc(O)cc(O)c4-c4cc3ccc4O)C(O)c3ccc(c(Cl)c3)Oc3cc2cc(c3OC2OC(CN)C(O)C(O)C2OC2CC(C)(NCc3ccc(OCc4ccc(C(F)(F)F)cc4)cc3)C(O)C(C)O2)Oc2ccc(cc2Cl)C1O (stereo not drawn) [Compound 179]	8
CNC(CC(C)C)C(=O)NC1C(=O)NC(CC(N)=O)C(=O)NC2C(=O)NC3C(=O)NC(C(=O)NC(C(=O)O)c4cc(O)cc(O)c4-c4cc3ccc4O)C(O)c3ccc(c(Cl)c3)Oc3cc2cc(c3OC2OC(CN)C(O)C(O)C2OC2CC(C)(NCc3ccc(OCc4ccc(C(=O)OC)cc4)cc3)C(O)C(C)O2)Oc2ccc(cc2Cl)C1O (stereo not drawn) [Compound 177]	>16
CNC(CC(C)C)C(=O)NC1C(=O)NC(CC(N)=O)C(=O)NC2C(=O)NC3C(=O)NC(C(=O)NC(C(=O)O)c4cc(O)cc(O)c4-c4cc3ccc4O)C(O)c3ccc(c(Cl)c3)Oc3cc2cc(c3OC2OC(CNCc3ccc(OC)cc3)C(O)C(O)C2OC2CC(C)(NCc3ccc(OCc4ccc(Cl)c(Cl)c4)cc3)C(O)C(C)O2)Oc2ccc(cc2Cl)C1O (stereo not drawn) [Compound 138]	8
